Origin of measurements: paper PMC7819943

This listing pairs sequences with measured binding signal.
measured on: OsWRKY34 (Oryza sativa, UniProt Q0JBA9 1-250)
Sequence (Q0JBA9 entry or part of it): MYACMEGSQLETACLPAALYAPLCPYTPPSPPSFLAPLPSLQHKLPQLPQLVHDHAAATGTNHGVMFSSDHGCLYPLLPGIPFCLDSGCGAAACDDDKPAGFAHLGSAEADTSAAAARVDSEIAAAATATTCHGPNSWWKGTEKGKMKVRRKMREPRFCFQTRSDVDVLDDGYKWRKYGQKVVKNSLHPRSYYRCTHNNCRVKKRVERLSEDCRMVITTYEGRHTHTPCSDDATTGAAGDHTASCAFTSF
assay explanation: protein-binding microarray (RPBM); PBS, 2% BSA, 51.3 ng/ul salmon testes DNA, 50 uM zinc acetate, 200 nM TF, 25 C, 1 h; high values mean tight binding
stated conditions: protein: recombinant; tags: N-terminal polyhistidine and DsRed monomer fusion (pET32a); label: CyDye5-dUTP incorporated in the synthesized complementary strand; 3' TTTTT single-stranded linker to array surface; dsDNA, one strand shown
Over roughly 68,000 sequences, “fluorescence intensity (a.u.)” has its median near 9,100; the highest 2% begin near 16,000. What follows is part of a selection rich in the highest values, with near analogues and random picks from the rest.

Observe how each entry below is paired with its result.
Ask: In one line, give reported binding signal of the entry TTGATGGGTTTTGGGTTTTTGTGCTGCTCCTTTTTCGTAACGGAGTCACCTAGTGCAG .
Reply: 19800 fluorescence intensity (a.u.)

Ask: Recall and state the measured binding signal for TTTAAAACTAGGACCTGAGTAAATATTTTTCTTGAGTTTTCGGAGTCACCTAGTGCAG .
Reply: 8040 fluorescence intensity (a.u.)

New cases:
Ask: # return recorded binding signal for entry TTCACCCACGTTTCTGCCCAACCCTCTCACCCTAGCTTAGCGGAGTCACCTAGTGCAG
Reply: 10800 fluorescence intensity (a.u.)

Ask: Provide measured binding signal value, entry: TTTCATGTCGCTCCTTGTCGTTGCTGCTCTTTGGGTGCAACGGAGTCACCTAGTGCAG
Reply: 11100 fluorescence intensity (a.u.)

Ask: Name the recorded binding signal of the item ACAATGGCACGGTCTACAAAATATATTTTTGACCTTATTTCGGAGTCACCTAGTGCAG in your answer.
Reply: 8440 fluorescence intensity (a.u.)

====

measured on: OsWRKY34 (Oryza sativa, UniProt Q0JBA9 1-250)
assay explanation: protein-binding microarray (RPBM); PBS, 2% BSA, 51.3 ng/ul salmon testes DNA, 50 uM zinc acetate, 200 nM TF, 25 C, 1 h; high values mean tight binding
stated conditions: protein: recombinant; tags: N-terminal polyhistidine and DsRed monomer fusion (pET32a); label: CyDye5-dUTP incorporated in the synthesized complementary strand; 3' TTTTT single-stranded linker to array surface; dsDNA, one strand shown
Over roughly 68,000 sequences, “fluorescence intensity (a.u.)” has its median near 9,100; the highest 2% begin near 16,000. The list comes from a sample in which the highest values are over-represented; it also holds close analogues and randomly drawn sequences.
measured parameter: binding signal

Sample records with binding signal:
Ask: Quick one: give measured binding signal for ATAAACATAAACTTCCAACATTTCCGTCACATCATTCTAACGGAGTCACCTAGTGCAG
Reply: 8970 fluorescence intensity (a.u.)

Ask: State, in one line, measured binding signal of GAAGTGAATAGTAGAGGGTTTTGATGGGTTGGGAAGAGAACGGAGTCACCTAGTGCAG
Reply: 11200 fluorescence intensity (a.u.)

Ask: Please list binding signal recorded for the sequence TTTTGGTTTTATGAGGCGGTGGATGGATACTTGTTACACTCGGAGTCACCTAGTGCAG
Reply: 10300 fluorescence intensity (a.u.)

Ask: Please give the documented binding signal of AAACTTCCCCGCGTACGATGACGCCAATACACATACATATCGGAGTCACCTAGTGCAG
Reply: 10700 fluorescence intensity (a.u.)

Ask: Tell me measured binding signal for GACCTAGCTCTGCCCTTTCTTTCTGAAATAAATAATGCATCGGAGTCACCTAGTGCAG please.
Reply: 8960 fluorescence intensity (a.u.)

---
Ask: Supply binding signal value. Item: GCCGACTCTTACTCCTCCGCCCACTCACCACGCGCGCTGCCGGAGTCACCTAGTGCAG
Reply: 11000 fluorescence intensity (a.u.)

Ask: Give the reported binding signal for this sequence. TTCTTTTGCCGTGCTCCCAGATTCTCCGGTCGCCACGACTCGGAGTCACCTAGTGCAG
Reply: 8590 fluorescence intensity (a.u.)

Ask: Item CTCTCTTTCTCTTCCATTTCTTGAAACTTGTATGGAGGTTCGGAGTCACCTAGTGCAG : provide binding signal
Reply: 9410 fluorescence intensity (a.u.)

Ask: Answer with the recorded binding signal for the sequence listed here: AAACAGAGGTTTTTCTCCTGTACATGTGTCCCATGCCAACCGGAGTCACCTAGTGCAG
Reply: 9880 fluorescence intensity (a.u.)
